Reference source: PubChem BioAssay (NCI)

Test system: MOLT-4 leukemia
assay-explanation: NCI-60 one-dose screen, 48 h
measurement-conditions: 10 µM unless noted
Compounds without any hit were thinned out: in the full panel of roughly 83,000, 20% have a hit. Active and inactive are the calls of the source. The calls were made as follows: active = growth percent below 10; inactive = the rest.
Respond with a class label; see active, inactive

| compound | assayed-target | class-label |
| --- | --- | --- |
| COc1ccc(/C=C2\N=C(c3cccnc3)N(c3ccccc3)NC2=O)cc1 | MOLT-4 leukemia | inactive |

What call does the record list for `Cc1cc2nc3c(=O)[nH]c(=O)nc-3n(CC=O)c2cc1C` ?
inactive

What call does the record list for `F` ?
inactive

What call does the record list for `CCOc1cccc(/C=N/NC(=O)Cc2ccc(Nc3ccnc(C(F)(F)F)c3)cc2)c1O` ?
inactive

What call does the record list for COc1ccc(C2C3=C(COC3=O)N(CCO)c3cc(OC)c(OC)cc32)cc1 (stereo unspecified) ?
inactive

What call does the record list for `O=C(Nc1cnc(C(F)(F)F)cn1)c1cc(Cl)ccc1O` ?
active

What call does the record list for CC(=O)N1N=C(c2ccc(C)cc2)CC1c1cn(-c2ccccc2)nc1-c1cccc(Nc2ccnc3cc(Cl)ccc23)c1 (stereo unspecified) ?
inactive

###

System: MDA-MB-231 breast
assay-explanation: NCI-60 one-dose screen, 48 h (100 = growth as untreated, 0 = no growth, -100 = all killed)
measurement-conditions: 10 µM unless noted
This is part of a sample that, as a whole, favours compounds with a hit. Of some 83,000 tested, about 20% had one in any assay.
Listing: growth of selected molecules
Respond numerically; units are % and should not be typed.

| molecule | assayed-target | property-measured | measurement-unit | recorded-result |
| --- | --- | --- | --- | --- |
| COc1ccc(-c2nc3ccc(Cc4ccc5nc(-c6ccc(OC)cc6)[nH]c5c4)cc3[nH]2)cc1 | MDA-MB-231 breast | growth | % | 17.3 |
| CC(=O)c1ccc(-n2c(-c3cc(-c4ccsc4)n[nH]3)n[nH]c2=S)cc1 | MDA-MB-231 breast | growth | % | 105 |
| Cc1cc(O)ccc1C1=NN(c2ccc(S(N)(=O)=O)cc2)C(=O)CC1 | MDA-MB-231 breast | growth | % | 73.8 |

Param readout= growth; system= MDA-MB-231 breast; entry= `FC(F)(F)c1ccc(/C=N/Nc2nnc3n2N=C(c2ccc(Cl)cc2)CS3)cc1` ; returns value.
56.2

Param readout= growth; system= MDA-MB-231 breast; entry= COC(=O)C(CCC(=O)CCl)N1C(=O)c2ccccc2C1=O (stereo not given) ; returns value.
84.6

###

System: OVCAR-3 ovarian
assay-explanation: NCI-60 one-dose screen, 48 h
measurement-conditions: 10 µM unless noted
Compounds without any hit were thinned out: in the full panel of roughly 83,000, 20% have a hit. Active and inactive are the calls of the source. The calls were made as follows: active = growth percent below 10; inactive = the rest.
Respond with a class label; see Yes for active, No for inactive

Record excerpt, results attached:
| molecule | assayed-target | class-label |
| --- | --- | --- |
| CC(=O)c1ccc(Nc2nc(Cl)nc(Oc3c(Cl)cccc3Cl)n2)cc1 | OVCAR-3 ovarian | No |
| COc1ccc(NC(=O)C2c3ccccc3C(=O)N(CC(C)C)C2c2cccs2)cc1 (centres undefined) | OVCAR-3 ovarian | No |
| c1ccc(C2=Nc3ccccc3SC2)cc1 | OVCAR-3 ovarian | No |
| C#CC[C@@H]1C[C@]2(C)[C@H]3CC[C@@H]4[C@H]5C(C(=C)C)CC[C@]5(C(=O)NCCN(CCN)CCN)CC[C@@]4(C)[C@]3(C)CC[C@H]2C(C)(C)[C@H]1OC(C)=O (some centres undefined) | OVCAR-3 ovarian | No |
| C#CCNC(=S)N/N=C(\C)c1ccccn1 | OVCAR-3 ovarian | No |

What call does the record list for `COc1ccc(-c2[nH]nc(N)c2-c2cc(OC)c(OC)c(OC)c2)cc1` ?
Yes

What call does the record list for `Cc1ccc(N2C3c4ccccc4N(S(=O)(=O)c4ccc(C)cc4)C2c2ccccc2N3S(=O)(=O)c2ccc(C)cc2)cc1` ?
No

What call does the record list for CC(C)N=C1CCCC1C(=S)SSC(=S)C1CCCC1=NC(C)C (centres undefined) ?
No

What call does the record list for `CNC(=O)c1cc(Oc2ccc(NC(=O)c3[nH]c(SC)nc3-c3ccc(F)cc3)cc2)ccn1` ?
No
